# Assayed target: human DGKα (Homo sapiens)
# Construct: TVMV protease cleavage site (C); Hexa-His (C); made in house; host or cells: Sf9 insect cells (baculovirus, Bac-to-Bac)
# Sequence (P23743 with tags, fused parts or gaps): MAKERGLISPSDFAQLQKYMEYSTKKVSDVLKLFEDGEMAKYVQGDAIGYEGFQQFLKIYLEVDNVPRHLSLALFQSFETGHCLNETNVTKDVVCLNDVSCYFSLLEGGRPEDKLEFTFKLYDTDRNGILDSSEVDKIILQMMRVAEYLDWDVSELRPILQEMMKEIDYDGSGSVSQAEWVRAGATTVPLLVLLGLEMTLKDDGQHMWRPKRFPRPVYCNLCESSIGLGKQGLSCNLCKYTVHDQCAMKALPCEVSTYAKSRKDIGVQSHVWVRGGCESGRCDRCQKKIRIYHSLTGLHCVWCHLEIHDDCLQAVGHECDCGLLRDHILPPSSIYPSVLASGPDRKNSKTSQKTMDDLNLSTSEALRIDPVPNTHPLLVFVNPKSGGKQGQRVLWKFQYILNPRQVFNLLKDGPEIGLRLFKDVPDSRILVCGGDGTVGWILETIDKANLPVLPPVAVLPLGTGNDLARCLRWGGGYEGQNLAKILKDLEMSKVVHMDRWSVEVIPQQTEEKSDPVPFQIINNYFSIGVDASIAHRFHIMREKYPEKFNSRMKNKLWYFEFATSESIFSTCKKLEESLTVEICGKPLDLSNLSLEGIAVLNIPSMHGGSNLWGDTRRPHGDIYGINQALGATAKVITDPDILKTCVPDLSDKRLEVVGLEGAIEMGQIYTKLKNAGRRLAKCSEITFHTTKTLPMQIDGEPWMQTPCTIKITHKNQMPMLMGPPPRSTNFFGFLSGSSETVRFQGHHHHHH
# Assay overview: DGKα LIPGLO assay (extruded liposome substrate), in vitro DGK inhibition
# Format: biochemical
# Reported conditions: liposome (LIPGLO) assay; read-out: DGKa LIPGLO IC50
pIC50: −log10 of the molar value.
# cutoff 6 applies to pIC50; >= gives T, < gives F

CC(C)c1ccc(C(C)N2C[C@H](C)N(c3cc(=O)n(C)c4ccc(C#N)nc34)C[C@H]2C)cc1 (single isomer, unassigned) [Example 1234]
F

Q) Check this molecule for pIC50 at or above 6: Cc1ccnc(C(c2ccc(F)cc2)N2C[C@H](C)N(c3cc(=O)n(C)c4ccc(C#N)nc34)C[C@H]2C)c1 (single isomer, unassigned) [Example 456]
A) T

Q) Check this molecule for pIC50 at or above 6: Cc1cccc(C)c1CN1C[C@H](C)N(c2cc(=O)n(C)c3ccc(C#N)nc23)C[C@H]1C [Example 265]
A) F

Q) Check this molecule for pIC50 at or above 6: C[C@@H]1CN(c2cc(=O)n(C)c3ccc(C#N)nc23)[C@@H](C)CN1C(c1ccc(F)cc1)c1cccc(F)n1 (single isomer, unassigned) [Example 471]
A) T
